- procedure_text: Clinical pharmacokinetics: plasma CYH33 and I27 by LC/MS/MS
- Format: in vivo, human
- condition_context: human, plasma, oral; C1D1, 5 mg, 0.5 h
- Method: The PK characteristics of CYH33 and its active metabolite I27 were evaluated after single and multiple dose administrations. PK data were obtained from 37 patients from 7 dose cohorts: 1 mg (n = 1), 5 mg (n = 1), 10 mg (n = 2), 20 mg (n = 6), 30 mg (n = 12), 40 mg (n = 13), and 60 mg (n = 2). […] Based on the single dose PK data for CYH33 of the first 5 patients at doses of 1, 5, 10 and 20 mg, the PK and metabolic characteristics of CYH33 and I27 were evaluated. […]

substance_smiles	concentration at 0.5 h / ng/mL
COC(=O)Nc1cc(C(F)(F)F)c(-c2nc(N3CCOCC3)c3cc(CN4CCN(S(C)(=O)=O)CC4)cn3n2)cn1	0

====

- procedure_text: Clinical pharmacokinetics: plasma CYH33 and I27 by LC/MS/MS
- Format: in vivo, human
- condition_context: C1D1, 30 mg, 48 h

substance_smiles	CYH33 plasma concentration, mean / ng/mL
COC(=O)Nc1cc(C(F)(F)F)c(-c2nc(N3CCOCC3)c3cc(CN4CCN(S(C)(=O)=O)CC4)cn3n2)cn1	42.5

====

- procedure_text: Clinical pharmacokinetics: plasma CYH33 and I27 by LC/MS/MS
- Format: in vivo, human
- condition_context: human, plasma, oral, 20 mg, CYH33, Cycle 1 Day 28, 20 mg (n=6); read-out: AUC0-24h, mean
property: AUC(0-t) (ng·h/mL)

substance_smiles	test_result
COC(=O)Nc1cc(C(F)(F)F)c(-c2nc(N3CCOCC3)c3cc(CN4CCN(S(C)(=O)=O)CC4)cn3n2)cn1	2630

====

- procedure_text: Clinical pharmacokinetics: plasma CYH33 and I27 by LC/MS/MS
- Assay type: in vivo, human
- condition_context: human, plasma, oral, 5 mg, CYH33, Cycle 1 Day 28, 5 mg (n=1); read-out: Tmax, median
- Protocol: The PK characteristics of CYH33 and its active metabolite I27 were evaluated after single and multiple dose administrations. PK data were obtained from 37 patients from 7 dose cohorts: 1 mg (n = 1), 5 mg (n = 1), 10 mg (n = 2), 20 mg (n = 6), 30 mg (n = 12), 40 mg (n = 13), and 60 mg (n = 2). […] Based on the single dose PK data for CYH33 of the first 5 patients at doses of 1, 5, 10 and 20 mg, the PK and metabolic characteristics of CYH33 and I27 were evaluated. […]

substance_smiles	unit_descriptor	Tmax
COC(=O)Nc1cc(C(F)(F)F)c(-c2nc(N3CCOCC3)c3cc(CN4CCN(S(C)(=O)=O)CC4)cn3n2)cn1	h	1

====

- procedure_text: Clinical pharmacokinetics: plasma CYH33 and I27 by LC/MS/MS
- Format: in vivo, human
- condition_context: C1D28, 5 mg, 2 h
property: CYH33 plasma concentration, mean

substance_smiles	property	test_result
COC(=O)Nc1cc(C(F)(F)F)c(-c2nc(N3CCOCC3)c3cc(CN4CCN(S(C)(=O)=O)CC4)cn3n2)cn1	CYH33 plasma concentration, mean	43 ng/mL

====

- procedure_text: Clinical pharmacokinetics: plasma CYH33 and I27 by LC/MS/MS
- Type: in vivo, human
- condition_context: human, plasma, oral; C1D1, 10 mg, 24 h
property: concentration at 24 h (ng/mL)

substance_smiles	unit_descriptor	test_result
COC(=O)Nc1cc(C(F)(F)F)c(-c2nc(N3CCOCC3)c3cc(CN4CCN(S(C)(=O)=O)CC4)cn3n2)cn1	ng/mL	17.4
